# credit: PubChem BioAssay (NCI)

A collection of compounds and their measured growth inhibition
assay: NCI Yeast Anticancer Drug Screen. Data for the mec2-1 strain (AID 157)
measurement_setup: S. cerevisiae mec2-1 strain, at 50.0 µM, hits give high values
About 79,000 compounds went through this panel and 15% of them were active in at least one assay; those are over-represented in the sample as a whole. *1 amine or outer side, *2 acyl side, *3 side chain or, on linkers, in order; H or OH if unused. Where a SMILES comes first, the peptide text is derived from it. [ ]: non-standard residue; d: D form. The star is where a group is joined. X5 = CCC(=O)CC1CC(C)CC(C(=O)[*:2])N1[*:1]; X4 = CCCCCCCCC(C)C(=O)*; Aib = CC(C)(N)C(=O)O; X6 = CC(CN(C)CCO)N*

{"compound": "CC(C)Nc1ccc(Nc2ccc(NC(C)C)cc2)cc1", "unit_of_measurement": "%", "growth inhibition": 97}
{"compound": "COc1c(/C=C/C=O)cc2c(c1OC)OCO2", "unit_of_measurement": "%", "growth inhibition": -6.3}
{"compound": "CCOc1ccc2c(c1)/C(=C\\C=C\\C1CC(C)C3CC(OCC)CCC3N1CC)CC(C)N2CC (stereo not given)", "unit_of_measurement": "%", "growth inhibition": 88.2}
{"compound": "CC(C)(C)CC(C)(C)c1ccc(OCCOCCSC(=N)N)cc1", "unit_of_measurement": "%", "growth inhibition": 47}
{"compound": "CCN(CC)CC(O)CNc1ccc(NCC2CO2)c2c1C(=O)c1ccccc1C2=O (stereo not given)", "unit_of_measurement": "%", "growth inhibition": 25.6}
{"compound": "CCCCOS(=O)(=O)c1ccccc1", "unit_of_measurement": "%", "growth inhibition": -2.6}
{"compound": "Cn1ccc(=Nc2ccc(NC(=O)c3ccc(N=c4ccn(C)c5ccc([N+](=O)[O-])cc45)cc3)cc2)cc1", "unit_of_measurement": "%", "growth inhibition": 87.4}
{"compound": "Oc1ccc2c(c1)CCc1ccccc1-2", "unit_of_measurement": "%", "growth inhibition": 75.5}
{"compound": "COc1ccc(C(Cn2ccnc2)Sc2ccc(Cl)c(Cl)c2)cc1 (stereo not given)", "unit_of_measurement": "%", "growth inhibition": 93.8}
{"compound": "COc1cc(NC(=O)C2=C(C)NC(C)=C(C(=O)Nc3cc(OC)c(Cl)cc3OC)C2c2cccc([N+](=O)[O-])c2)c(OC)cc1Cl", "unit_of_measurement": "%", "growth inhibition": 76.3}
{"compound": "CC1=CC(=NC(=O)CBr)C=C/C1=N\\S(=O)(=O)c1ccccc1", "unit_of_measurement": "%", "growth inhibition": 33.2}
{"compound": "NNc1ccc(Cl)cc1Cl", "unit_of_measurement": "%", "growth inhibition": 99.4}
{"compound": "O=[n+]1c2ccccc2n([O-])c2cc(Cl)ccc21", "unit_of_measurement": "%", "growth inhibition": 99.4}
{"compound": "COC(=O)Nc1nc2ccc(C3(c4ccc(F)cc4)OCCO3)cc2[nH]1", "unit_of_measurement": "%", "growth inhibition": 35}
{"compound": "COc1cc(N(CCC#N)CCC#N)ccc1/C(N=Nc1ccc([N+](=O)[O-])cc1)=N/NC(=O)c1cc(Br)ccc1O", "unit_of_measurement": "%", "growth inhibition": 44.6}
{"compound": "S=C(SSC(=S)N1CCOCC1)N1CCOCC1", "unit_of_measurement": "%", "growth inhibition": 99.6}
{"compound": "CCCCCCCCC(C)C(=O)N1CCCC1C(=O)N1C(CC(=O)CC)CC(C)CC1C(=O)NC(C)C(=O)NC(C)(C)C(=O)NC(C)(C)C(=O)NC(C(=O)NC(C)C(=O)NC(C)(C)C(=O)NC(C)(C)C(=O)NC(C)CN(C)CCO)C(C)CC (stereo not given) (X4-P[X5]A[Aib][Aib]IA[Aib][Aib]-X6; configuration not given here)", "unit_of_measurement": "%", "growth inhibition": 93.5}
{"compound": "CCc1cnc2ccccc2c1/C=C/c1ccc(N(C)C)cc1", "unit_of_measurement": "%", "growth inhibition": 97.3}
{"compound": "O=C1CSC(=S)N1Cc1cccnc1", "unit_of_measurement": "%", "growth inhibition": 34}
{"compound": "CN(C)c1ccc(C(C#N)(c2ccccc2)c2ccc(N(C)C)cc2)cc1", "unit_of_measurement": "%", "growth inhibition": 96.2}
